Read-out: Plasminogen activator inhibitor-1 (PAI1), SERPINE1 (gene 5054)
ASSAY INFO: BSK_hDFCGF_PAI1: BioMAP Diversity Plus: hDFCGF Assay for Plasminogen activator inhibitor-1 (PAI1) Biomarker Activity (AID 2283066)
TEST SETTINGS: primary human foreskin fibroblasts; actives raise or lower the signal
Active and inactive are the calls of the source. Rule for the calls: active = hit-call score of the fitted dose curve at least 0.9, where 1 is the maximum; inactive = score below 0.9.
# output must be one of t (active), f (inactive)

compound=CC(C)Oc1cc(-n2nc(C(C)(C)C)oc2=O)c(Cl)cc1Cl label_value=t
compound=COc1nc(C)nc(NC(=O)NS(=O)(=O)c2ccccc2CCC(F)(F)F)n1 label_value=f
compound="CCCC1COC(Cn2cncn2)(c2ccc(Cl)cc2Cl)O1 (configuration not stated)" label_value=f

*Q* Which outcome was assigned to CS/C(C)=N/OC(=O)N(C)SN(C)C(=O)O/N=C(\C)SC in this test?
*A* t

*Q* Which outcome was assigned to O=C(O)COc1nc(Cl)c(Cl)cc1Cl in this test?
*A* f

*Q* Which outcome was assigned to CNC(=S)S in this test?
*A* f

*Q* Which outcome was assigned to C=CCC1=C(C)[C@@H](OC(=O)[C@@H]2[C@@H](C=C(C)C)C2(C)C)CC1=O in this test?
*A* t

*Q* Which outcome was assigned to CC1=C(C(=O)Nc2ccccc2)SCCO1 in this test?
*A* f

*Q* Which outcome was assigned to COC(=O)N(OC)c1ccccc1COc1ccn(-c2ccc(Cl)cc2)n1 in this test?
*A* t

*Q* Which outcome was assigned to C#CCOS(=O)OC1CCCCC1Oc1ccc(C(C)(C)C)cc1 (configuration not stated) in this test?
*A* t

*Q* Which outcome was assigned to CN(C)C(=S)SSC(=S)N(C)C in this test?
*A* t

*Q* Which outcome was assigned to COc1nc(C)nc(NC(=O)NS(=O)(=O)c2ccccc2Cl)n1 in this test?
*A* f
